These data points were gathered from ChEMBL document CHEMBL4765484.

assay: Tmax in CD1 mouse at 1 mg/kg, po after 24 hrs by HPLC-MS/MS analysis; assay type: ADME, organism-based; conditions: in vivo
testReadout: Tmax (h)

CC1(C)C(=O)c2ccc(-c3cnc(N4CCN5C(=O)NC[C@@H]5C4)nc3)cc2N1Cc1cccnc1C#N	1

(A) C[C@@H]1CN(c2ncc(-c3ccc4c(c3)N(Cc3ccccc3OC(F)F)C(C)(C)C4=O)cn2)CCN1C(=O)CO
(B) C[C@@H]1CN(c2ncc(-c3ccc4c(c3)N(Cc3cccnc3C#N)C(C)(C)C4=O)cn2)CCN1C(=O)CO
Of A versus B , which is the one with smaller reported Tmax? Please identify the chosen entry by its label.
B
(B: 1 h, A: 1.8 h)

---

experiment: AUC in CD1 mouse at 1 mg/kg, po after 24 hrs by HPLC-MS/MS analysis; format: ADME, organism-based; design: route oral, time 24 hrs, dose 1 mg/kg; conditions: in vivo
testReadout: AUC at 24 h (ng·h/mL)

CC1(C)C(=O)c2ccc(-c3cnc(N4CCN5C(=O)NC[C@@H]5C4)nc3)cc2N1Cc1cccnc1C#N	263

(I) C[C@@H]1CN(c2ncc(-c3ccc4c(c3)N(Cc3ccccc3OC(F)F)C(C)(C)C4=O)cn2)CCN1C(=O)CO
(II) C[C@@H]1CN(c2ncc(-c3ccc4c(c3)N(Cc3cccnc3C#N)C(C)(C)C4=O)cn2)CCN1C(=O)CO
Of I versus II , which is the one with smaller reported AUC at 24 h? Please identify the chosen entry by its label.
II
(II: 62.7 ng·h/mL, I: 2340 ng·h/mL)

---

test: AUC (0 to 12 hrs) in DBA/J mouse model of CFA and glucose-6-phosphate isomerase-induced arthritis model at 30 mg/kg, po BID beginning 1 hr prior to GPI immunization and measured up to day 17 after GPI immunization by HPLC-MS/MS analysis; format: ADME, organism-based; set-up: route oral, time 17 day, dose 30 mg/kg; conditions: in vivo
testReadout: AUC at 408 h (ng·h/mL)
Give your result in ng·h/mL as a bare value.

Fill in: AUC at 408 h of "CC1(C)C(=O)c2ccc(-c3cnc(N4CCN5C(=O)NC[C@@H]5C4)nc3)cc2N1Cc1cccnc1C#N" is ___
10200

---

experiment: Fraction unbound in plasma (unknown origin); format: ADME, cell-free
testReadout: fraction unbound

(P) C[C@@H]1CN(c2ncc(-c3ccc4c(c3)N(Cc3ccccc3OC(F)F)C(C)(C)C4=O)cn2)CCN1C(=O)CO
(Q) C[C@@H]1CN(c2ncc(-c3ccc4c(c3)N(Cc3cccnc3C#N)C(C)(C)C4=O)cn2)CCN1C(=O)CO
Which entry has a larger number for fraction unbound, P or Q ? Please identify the chosen entry by its label.
Q
(Q: 0.137, P: 0.00293)

---

assay: Volume of distribution at steady state in CD1 mouse at 1 mg/kg, iv after 24 hrs by HPLC-MS/MS analysis; assay type: ADME, organism-based; details: in vivo, read-out: Vdss
testReadout: Vd (L/kg)

C[C@@H]1CN(c2ncc(-c3ccc4c(c3)N(Cc3ccccc3OC(F)F)C(C)(C)C4=O)cn2)CCN1C(=O)CO	2.12

(P) CC1(C)C(=O)c2ccc(-c3cnc(N4CCN5C(=O)NC[C@@H]5C4)nc3)cc2N1Cc1cccnc1C#N
(Q) C[C@@H]1CN(c2ncc(-c3ccc4c(c3)N(Cc3cccnc3C#N)C(C)(C)C4=O)cn2)CCN1C(=O)CO
Which entry has a larger number for Vd, P or Q ? Please identify the chosen entry by its label.
Q

---

experiment: Solubility in phosphate buffer at pH 7.4; format: physicochemical
testReadout: solubility (µM)

(I) C[C@@H]1CN(c2ncc(-c3ccc4c(c3)N(Cc3ccccc3OC(F)F)C(C)(C)C4=O)cn2)CCN1C(=O)CO
(II) C[C@@H]1CN(c2ncc(-c3ccc4c(c3)N(Cc3cccnc3C#N)C(C)(C)C4=O)cn2)CCN1C(=O)CO
Of I versus II , which is the one with smaller reported solubility? Please identify the chosen entry by its label.
I
(I: 1.2 µM, II: 48.4 µM)

---

target: Tumor necrosis factor (Homo sapiens, UniProt P01375)
Sequence (P01375 whole entry): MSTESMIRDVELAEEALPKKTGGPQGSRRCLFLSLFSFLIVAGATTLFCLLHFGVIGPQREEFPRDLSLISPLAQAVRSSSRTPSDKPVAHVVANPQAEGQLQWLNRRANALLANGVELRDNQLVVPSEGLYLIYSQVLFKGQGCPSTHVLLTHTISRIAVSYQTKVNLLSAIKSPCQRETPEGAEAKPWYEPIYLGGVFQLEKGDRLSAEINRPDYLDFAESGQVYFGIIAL
# reported pKd; entries follow
pKd here is simply -log10 of the concentration when that concentration is written in mol/L.

Form entry - test system: Tumor necrosis factor (Homo sapiens, UniProt P01375); read-out: pKd; compound: "C[C@@H]1CN(c2ncc(-c3ccc4c(c3)N(Cc3ccccc3OC(F)F)C(C)(C)C4=O)cn2)CCN1C(=O)CO"
8.89

---

Lab note: Kd readings collected with UniProt:P01375 for the following compounds.
Give your result in µM as a bare value.

Solved entries (count: 2):
c1ccc(Cn2cnc3ccccc32)cc1	300
c1ccc(-c2cccc3ccncc23)c(OCCc2ccc(-c3cccc4ccncc34)cc2)c1	0.074

Then this compound:
Fill in: Kd of "c1ccc(-c2cccc3ccncc23)cc1" is ___
60
